Molecular target: T1, CRBN, Q96SW2;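 note: pooled lentiviral library of zinc finger degron-EGFP fusions in mCherry-positive Jurkat cells, FACS-sorted after compound exposure, with degron abundance counted by next-generation sequencing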
T1 chain: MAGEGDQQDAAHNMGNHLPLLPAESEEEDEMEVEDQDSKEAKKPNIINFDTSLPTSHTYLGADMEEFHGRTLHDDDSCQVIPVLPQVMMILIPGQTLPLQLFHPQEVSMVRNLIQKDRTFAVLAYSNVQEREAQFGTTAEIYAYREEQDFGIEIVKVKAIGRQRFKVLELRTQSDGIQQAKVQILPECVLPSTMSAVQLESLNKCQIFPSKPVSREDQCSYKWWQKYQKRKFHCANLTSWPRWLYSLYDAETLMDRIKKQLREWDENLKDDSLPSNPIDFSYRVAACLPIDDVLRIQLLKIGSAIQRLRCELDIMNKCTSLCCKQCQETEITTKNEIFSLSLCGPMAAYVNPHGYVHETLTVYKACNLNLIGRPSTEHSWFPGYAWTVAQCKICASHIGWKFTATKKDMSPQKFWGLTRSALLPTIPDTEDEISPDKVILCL
Assay: log2 fold change of degron read counts, EGFP-low vs EGFP+ sorted cells (limma voom), compound-induced degradation; higher = more compound-induced degradation of the degron-EGFP fusion; degrons are variants of IKZF1/3 zinc finger 2; compound dose not given here
Conditions: Jurkat; 18 h; compound: compound 33 (diphenyl IMiD analogue)
Whole data set: some 8,300 sequences, median “log2 fold change of degron read counts, EGFP-low vs EGFP+ sorted cells (limma voom), compound-induced degradation” near -1.1, cut for the highest 2% near 3.2. The sample as a whole holds a higher share of the highest values than the screen did.
READOUT: log2 fold change of degron read counts

• FLCEICGRIFTQKGNLLRHIKL [46F_47L_49E_50I_52G_53R_54I_55F_67L_, Q9UKT9] = -0.45
• FWCEICGRHFTQKGNLLRHIKL [46F_47W_49E_50I_52G_53R_54H_55F_67L_, Q9UKT9] = 0.0348
• FWCPICGANFTQKGNLLRHIKL [46F_47W_49P_50I_52G_53A_54N_55F_67L_, Q9UKT9] = 1.91
• FICNQCGAEFTQKGNLLRHIKL [46F_47I_49N_50Q_52G_53A_54E_55F_67L_, Q9UKT9] = -2.19

Provenance of the data: the supplement of paper PMC12645437
